Reported ED50 is given for each of the following molecules.
tested on: generalized trembling caused by dl-5-hydroxytryptophane; assay: Test B: potentialization in mice of generalized trembling caused by dl-5-hydroxytryptophane; assay type: in vivo; settings: Mus musculus; mice, oral; dl-5-hydroxytryptophane i.p.; read-out: Test B ED 50

Example entries and their recorded answers appear below.
Supply reported ED50 belonging to this molecule: COCC1C=C(c2ccc(OCc3ccccc3)cc2)C(=O)O1 (centres unmarked)
4 mg/kg

Supply reported ED50 belonging to this molecule: COCC1C=C(c2ccc(OCc3cccc(C#N)c3)cc2)C(=O)O1 (centres unmarked)
0.55 mg/kg

Supply reported ED50 belonging to this molecule: COC[C@H]1C[C@@H](c2ccc(OCc3ccc(F)c(Cl)c3)cc2)C(=O)O1 (relative stereo)
3.1 mg/kg

Continuing:
Supply reported ED50 belonging to this molecule: COCC1C=C(c2ccc(OCc3ccc(F)c(Cl)c3)cc2)C(=O)O1 (centres unmarked)
2.4 mg/kg

Supply reported ED50 belonging to this molecule: COC[C@H]1C[C@H](c2ccc(OCc3cccc(Cl)c3)cc2)C(=O)O1 (relative stereo)
10 mg/kg

Supply reported ED50 belonging to this molecule: COC[C@@H]1C[C@@H](c2ccc(OCc3cccc(C#N)c3)cc2)C(=O)O1 (relative stereo)
20 mg/kg

Supply reported ED50 belonging to this molecule: COC[C@H]1C[C@@H](c2ccc(OCCCCCl)cc2)C(=O)O1 (relative stereo)
1.7 mg/kg

Supply reported ED50 belonging to this molecule: COC[C@H]1C[C@H](c2ccc(OCc3cccc([N+](=O)[O-])c3)cc2)C(=O)O1 (relative stereo)
4.4 mg/kg

---

Reported LD50 is given for each of the following compounds.
assay: Acute toxicity, LD 50 in mice, oral; conditions: mouse, in vivo
Report as a plain number; the unit mg/kg is understood.

Supply reported LD50 belonging to this compound: COC[C@H]1C[C@@H](c2ccc(OCCCCCl)cc2)C(=O)O1 (relative stereo) [3 B]
2000

Attention now turns to another entry.
Supply reported LD50 belonging to this compound: N[C@@H]1C[C@H]1c1ccccc1 (relative stereo) [TRANYLCYPROMINE, reference compound]
58

---

test: Acute toxicity, LD 50 in mice, oral; conditions: mouse, in vivo
Reported LD50 is given for each of the following compounds.

Supply reported LD50 belonging to this compound: COCC1C=C(c2ccc(OCc3cccc(Cl)c3)cc2)C(=O)O1 (stereo not shown) [Compound 11]
> 2000 mg/kg

Continuing:
Supply reported LD50 belonging to this compound: COC[C@@H]1C[C@@H](c2ccc(OCc3cccc(C#N)c3)cc2)C(=O)O1 (relative stereo) [13 A]
> 2000 mg/kg

Supply reported LD50 belonging to this compound: COC[C@H]1C[C@@H](c2ccc(OCc3cc(C#N)cc([N+](=O)[O-])c3)cc2)C(=O)O1 (relative stereo) [17 B]
1700 mg/kg

Supply reported LD50 belonging to this compound: COC[C@@H]1C[C@H](c2ccc(OCc3cccc(C#N)c3)cc2)C(=O)O1 (relative stereo) [13 B]
> 2000 mg/kg

---

assay: Acute toxicity, LD 50 in mice, oral; conditions: mouse, in vivo
Measured Metric: LD50

Example entries and their recorded answers appear below.
Supply reported LD50 belonging to this compound: COC[C@H]1C[C@@H](c2ccc(OCc3cccc([N+](=O)[O-])c3)cc2)C(=O)O1 (relative stereo)
2000 mg/kg

Supply reported LD50 belonging to this compound: COC[C@H]1C[C@@H](c2ccc(OCc3cccc(Cl)c3)cc2)C(=O)O1 (relative stereo)
> 2000 mg/kg

Supply reported LD50 belonging to this compound: COCC1C=C(c2ccc(OCc3ccc(F)c(Cl)c3)cc2)C(=O)O1 (stereo not shown)
> 2000 mg/kg

Continuing:
Supply reported LD50 belonging to this compound: COC[C@H]1C[C@H](c2ccc(OCc3cc(C#N)cc([N+](=O)[O-])c3)cc2)C(=O)O1 (relative stereo)
> 2000 mg/kg

Supply reported LD50 belonging to this compound: C#CCN(C)Cc1ccccc1 [PARGYLINE, reference compound]
480 mg/kg

Supply reported LD50 belonging to this compound: COCC1CC(c2ccc(OCCCCC#N)cc2)C(=O)O1 (stereo not shown)
> 2000 mg/kg

Supply reported LD50 belonging to this compound: COC[C@H]1C[C@H](c2ccc(OCc3cccc([N+](=O)[O-])c3)cc2)C(=O)O1 (relative stereo)
> 2000 mg/kg

Supply reported LD50 belonging to this compound: COCC1C=C(c2ccc(OCc3ccccc3)cc2)C(=O)O1 (stereo not shown)
> 2000 mg/kg

Supply reported LD50 belonging to this compound: COC[C@H]1C[C@@H](c2ccc(OCc3ccc(F)c(Cl)c3)cc2)C(=O)O1 (relative stereo)
> 2000 mg/kg

Supply reported LD50 belonging to this compound: C#CCN(C)C(C)Cc1ccccc1 (stereo not shown) [reference compound]
520 mg/kg

Supply reported LD50 belonging to this compound: O=C1O[C@@H](CO)C[C@@H]1c1ccc(OCc2cccc([N+](=O)[O-])c2)cc1 (relative stereo)
> 2000 mg/kg

Supply reported LD50 belonging to this compound: N#Cc1cc(COc2ccc(C3CC(CO)OC3=O)cc2)cc([N+](=O)[O-])c1 (stereo not shown)
> 2000 mg/kg

Supply reported LD50 belonging to this compound: COC[C@H]1C[C@H](c2ccc(OCc3cccc(Cl)c3)cc2)C(=O)O1 (relative stereo)
> 2000 mg/kg

Supply reported LD50 belonging to this compound: O=C(CCNNC(=O)c1ccncc1)NCc1ccccc1 [NIALAMIDE, reference compound]
1100 mg/kg

Supply reported LD50 belonging to this compound: CC(=O)OC[C@H]1C[C@@H](c2ccc(OCc3cccc([N+](=O)[O-])c3)cc2)C(=O)O1 (relative stereo)
> 2000 mg/kg

Supply reported LD50 belonging to this compound: COCC1C=C(c2ccc(OCc3cccc([N+](=O)[O-])c3)cc2)C(=O)O1 (stereo not shown)
> 2000 mg/kg
